Attribution: paper PMC10547238

# STUDY SYSTEM: hFFA2 (Homo sapiens, UniProt O15552)
# Construct: expressed in transfected cells; host or cells: Flp-In T-Rex 293 cells, doxycycline-induced
# PROTOCOL SUMMARY: cAMP assay, antagonist mode, Flp-In T-Rex 293 cells expressing hFFA2-eYFP
# Format: cell-based
# COND: supplementary CSV; read-out: hFFA2 cAMP (pIC50) (converted)
MEASURED ENDPOINT: IC50 (nM)

Completed entries (count: 6):
O=C(Cc1cncc(Br)c1)N[C@@H](Cc1ccc(C(F)(F)F)cc1)Cc1nnn[nH]1 [Compound 16w] :: 10.2
CCOc1cccc(CC(=O)N[C@@H](Cc2ccc(C(F)(F)F)cc2)Cc2nnn[nH]2)c1 [Compound 16m] :: 15.8
O=C(Cc1cccnc1)N[C@@H](Cc1ccc(C(F)(F)F)cc1)Cc1nnn[nH]1 [Compound 16s] :: 91.2
Cc1cccc(CC(=O)N[C@@H](Cc2ccc(C(F)(F)F)cc2)Cc2nnn[nH]2)c1 [Compound 8] :: 5.62
O=C(Cc1cccc(I)c1)N[C@@H](Cc1ccc(C(F)(F)F)cc1)Cc1nnn[nH]1 [Compound 16h] :: 6.03
O=C(Cc1ccccc1)N[C@@H](Cc1ccc(C(F)(F)F)cc1)Cc1nnn[nH]1 [Compound 16a] :: 11.7

[I] O=C(Cc1cccc(OC(F)(F)F)c1)N[C@@H](Cc1ccc(C(F)(F)F)cc1)Cc1nnn[nH]1 [Compound 16n]
[II] O=C(Cc1ccncc1)N[C@@H](Cc1ccc(C(F)(F)F)cc1)Cc1nnn[nH]1 [Compound 16t]
[III] O=C(Cc1ccc(Cl)cc1)N[C@@H](Cc1ccc(C(F)(F)F)cc1)Cc1nnn[nH]1 [Compound 16f]
IN: Arrange items by their IC50 values in increasing order. Thanks in advance for listing the labels in the requested order.
OUT: III, I, II
(III: 9.33 nM, I: 46.8 nM, II: 2950 nM)

----------
# STUDY SYSTEM: hFFA2 (Homo sapiens, UniProt O15552)
# Construct: expressed in transfected cells; host or cells: Flp-In T-Rex 293 cells, doxycycline-induced
# Sequence (O15552 1-330): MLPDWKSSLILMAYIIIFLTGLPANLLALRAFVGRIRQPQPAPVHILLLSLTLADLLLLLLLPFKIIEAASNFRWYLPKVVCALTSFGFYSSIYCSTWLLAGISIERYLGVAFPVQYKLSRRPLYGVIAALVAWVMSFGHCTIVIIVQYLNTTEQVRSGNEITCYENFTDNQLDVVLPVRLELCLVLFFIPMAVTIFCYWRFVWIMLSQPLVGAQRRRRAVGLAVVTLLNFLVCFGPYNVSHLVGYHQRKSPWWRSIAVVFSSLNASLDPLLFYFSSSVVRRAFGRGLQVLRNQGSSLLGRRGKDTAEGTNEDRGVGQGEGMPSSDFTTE
# PROTOCOL SUMMARY: cAMP assay, antagonist mode, Flp-In T-Rex 293 cells expressing hFFA2-eYFP
# Assay type: cell-based
# COND: hFFA2, antagonist mode, propionate at EC80; mean ± SEM, three or more experiments
MEASURED ENDPOINT: cAMP pIC50

O=C(O)C[C@H](Cc1ccc(C(F)(F)F)cc1)NC(=O)Cc1cccc(Cl)c1 [Compound 3, reference compound] :: 6.96
O=C(Cc1ccc(Cl)cc1)N[C@@H](Cc1ccc(C(F)(F)F)cc1)Cc1nnn[nH]1 [Compound 16f] :: 8.08
O=C(Cc1cccc(Cl)c1)N[C@@H](Cc1ccc(C(F)(F)F)cc1)Cc1nnn[nH]1 [Compound 16e] :: 8.15
